The origin of these recorded values is PubChem BioAssay AID1508615.

- assay-system: NAD(+) hydrolase SARM1 (Homo sapiens) (UniProt Q6SZW1)
- Sequence (Q6SZW1 whole entry, looked up): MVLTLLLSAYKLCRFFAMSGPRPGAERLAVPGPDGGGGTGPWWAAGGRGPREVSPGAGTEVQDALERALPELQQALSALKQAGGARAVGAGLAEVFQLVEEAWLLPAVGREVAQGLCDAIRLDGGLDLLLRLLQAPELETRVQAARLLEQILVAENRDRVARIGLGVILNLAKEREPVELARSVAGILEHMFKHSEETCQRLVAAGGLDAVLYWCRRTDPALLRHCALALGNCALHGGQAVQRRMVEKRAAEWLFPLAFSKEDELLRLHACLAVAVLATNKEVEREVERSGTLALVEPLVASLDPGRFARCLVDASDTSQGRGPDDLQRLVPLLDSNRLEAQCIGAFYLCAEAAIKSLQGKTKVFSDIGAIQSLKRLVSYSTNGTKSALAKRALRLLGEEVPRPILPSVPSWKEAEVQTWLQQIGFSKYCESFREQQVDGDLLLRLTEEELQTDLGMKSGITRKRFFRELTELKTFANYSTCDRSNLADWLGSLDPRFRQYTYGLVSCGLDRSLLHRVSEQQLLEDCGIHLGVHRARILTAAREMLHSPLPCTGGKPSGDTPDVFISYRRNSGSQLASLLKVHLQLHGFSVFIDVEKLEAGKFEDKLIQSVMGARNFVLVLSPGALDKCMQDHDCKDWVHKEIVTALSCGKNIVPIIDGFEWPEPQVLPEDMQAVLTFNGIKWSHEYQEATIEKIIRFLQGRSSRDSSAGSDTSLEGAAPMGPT
- test-summary: inhibition of SAM-TIR NAD hydrolysis to ADPR – cell lysate, HPLC readout, primary screen (AID 1508615);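 note: substrate NAD at 5 µM with 60 min at 37 °C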
- test-context: HEK293T SAM-TIR lysate, NAD/ADPR ratio by HPLC; at 5 µM; active compounds read high
Out of some 1,600 compounds screened, about 20 (1%) were called active. This is one part of a sample in which actives are shown more often than they occur.
Classification field: fulfilled = NAD/ADPR ratio at or over 3; not fulfilled = NAD/ADPR ratio under 3.

compound	label-class
Cn1c2ccccc2c2ccc3c(c21)C(=O)C=CC3=O	fulfilled
Oc1cc(CNC2CCCCC2)c(O)cc1CNC1CCCCC1	fulfilled
CC(=O)c1cc(O)c2ccccc2c1O	fulfilled
COC(=O)CC1(C(=O)OC)Nc2cc(Cl)c(Cl)cc2S(=O)(=O)N1O (stereo not given)	fulfilled
COc1ccc2c(c1)c1ccc3c(c1n2C)C(=O)C=CC3=O	fulfilled
O=[N+]([O-])c1ccc(NN=C(c2ccccc2)c2ccccc2)nc1	not fulfilled

----------
- assay-system: NAD(+) hydrolase SARM1 (Homo sapiens) (UniProt Q6SZW1)
- test-summary: inhibition of SAM-TIR NAD hydrolysis to ADPR – cell lysate, HPLC readout, primary screen (AID 1508615);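 note: substrate NAD at 5 µM with 60 min at 37 °C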
- test-context: HEK293T SAM-TIR lysate, NAD/ADPR ratio by HPLC; at 5 µM
The whole screen tested about 1,600 compounds, of which about 20 (1%) were called active.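 Rule for the calls: active = ratio of uncleaved NAD to its breakdown product ADP-ribose above 4, meaning the enzyme was inhibited; inactive = the rest.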 This is one part of a sample in which actives are shown more often than they occur.
Outcome codes: 1.0 = active, 0.0 = inactive

compound	assay-system	label-class
CN(C)c1nc(=NCc2ccco2)ss1	NAD(+) hydrolase SARM1 (Homo sapiens) (UniProt Q6SZW1)	1.0
Cc1cc2cc3c(=O)[nH]c(=O)cc-3n(CC(O)C(O)C(O)CO)c2cc1C (centres undefined)	NAD(+) hydrolase SARM1 (Homo sapiens) (UniProt Q6SZW1)	0.0
NC(=O)N/N=C1\CC2CC1C1C=CCC21 (centres undefined)	NAD(+) hydrolase SARM1 (Homo sapiens) (UniProt Q6SZW1)	0.0
c1ccc2c(c1)Oc1cccc3cccc-2c13	NAD(+) hydrolase SARM1 (Homo sapiens) (UniProt Q6SZW1)	0.0
CCOC(=O)c1ccc2c(c1)NCc1cccc(OC)c1O2	NAD(+) hydrolase SARM1 (Homo sapiens) (UniProt Q6SZW1)	0.0
CCOc1ccc(NC(=O)N(O)C2(C#N)CCCCC2)cc1	NAD(+) hydrolase SARM1 (Homo sapiens) (UniProt Q6SZW1)	0.0
O=C(O)c1ccc(OCCOc2ccccc2)cc1	NAD(+) hydrolase SARM1 (Homo sapiens) (UniProt Q6SZW1)	0.0
c1ccc2c(c1)cnc1ccccc12	NAD(+) hydrolase SARM1 (Homo sapiens) (UniProt Q6SZW1)	0.0
COc1cc(-c2ccc(NC(=O)NC3CC3)c(OC)c2)ccc1NC(=O)NC1CC1	NAD(+) hydrolase SARM1 (Homo sapiens) (UniProt Q6SZW1)	0.0
CC(C)(C)NC1=NCCNC(c2ccccc2)=C1	NAD(+) hydrolase SARM1 (Homo sapiens) (UniProt Q6SZW1)	0.0
O=C1c2cccc(Oc3ccccc3)c2C(=O)c2cccc(Oc3ccccc3)c21	NAD(+) hydrolase SARM1 (Homo sapiens) (UniProt Q6SZW1)	0.0
NC(=O)CCC(C(=O)O)N1C(=O)C2C3CCC(C3)C2C1=O (centres undefined)	NAD(+) hydrolase SARM1 (Homo sapiens) (UniProt Q6SZW1)	0.0
Cn1ncc2c(Nc3ccccc3Cl)nc(Nc3ccccc3Cl)nc21	NAD(+) hydrolase SARM1 (Homo sapiens) (UniProt Q6SZW1)	0.0
CCN(CC)CCNC(=O)c1ccc(NCN2C(=O)NC(c3ccccc3)(c3ccccc3)C2=O)cc1	NAD(+) hydrolase SARM1 (Homo sapiens) (UniProt Q6SZW1)	0.0
NC(N)=Nc1nc2ccc([N+](=O)[O-])cc2[nH]1	NAD(+) hydrolase SARM1 (Homo sapiens) (UniProt Q6SZW1)	0.0
O=[N+]([O-])c1ccc(Sc2cccc[n+]2[O-])c2nonc12	NAD(+) hydrolase SARM1 (Homo sapiens) (UniProt Q6SZW1)	1.0
CCOC(=O)Cc1c[nH]c(=S)[nH]c1=O	NAD(+) hydrolase SARM1 (Homo sapiens) (UniProt Q6SZW1)	0.0
[O-]/[N+](=C\c1ccccc1)CC1(O)CCCCC1	NAD(+) hydrolase SARM1 (Homo sapiens) (UniProt Q6SZW1)	0.0
O=C(c1cccnc1)c1cc(-c2ccccn2)c(=O)n2ccccc12	NAD(+) hydrolase SARM1 (Homo sapiens) (UniProt Q6SZW1)	0.0
CCN1CCC(Nc2ccnc3cc(Cl)ccc23)CC1	NAD(+) hydrolase SARM1 (Homo sapiens) (UniProt Q6SZW1)	0.0
Nc1ccc(C(=O)Oc2ccc([N+](=O)[O-])cc2)cc1	NAD(+) hydrolase SARM1 (Homo sapiens) (UniProt Q6SZW1)	0.0
Cc1ccc(S(=O)c2ccc([N+](=O)[O-])c3nonc23)cc1 (centres undefined)	NAD(+) hydrolase SARM1 (Homo sapiens) (UniProt Q6SZW1)	1.0
O=C(OCC1CCC=CO1)C1CCC=CO1 (centres undefined)	NAD(+) hydrolase SARM1 (Homo sapiens) (UniProt Q6SZW1)	0.0
O=C(c1cccnc1)C1Cc2ccccc2C1=O (centres undefined)	NAD(+) hydrolase SARM1 (Homo sapiens) (UniProt Q6SZW1)	0.0
S=c1c2[nH]cnc2ncn1CCSc1ncnc2nc[nH]c12	NAD(+) hydrolase SARM1 (Homo sapiens) (UniProt Q6SZW1)	0.0
CC(C)(c1cc(Cl)c(O)c(CN2CCOCC2)c1)c1cc(Cl)c(O)c(CN2CCOCC2)c1	NAD(+) hydrolase SARM1 (Homo sapiens) (UniProt Q6SZW1)	0.0
Cc1ccc(-c2cssc2=S)cc1	NAD(+) hydrolase SARM1 (Homo sapiens) (UniProt Q6SZW1)	0.0
CCOc1ccc(NC(=O)c2cc3ccccc3cc2O)cc1	NAD(+) hydrolase SARM1 (Homo sapiens) (UniProt Q6SZW1)	0.0
COc1ccc(C(=S)N2CCN(c3ccccc3Cl)CC2)cc1OC	NAD(+) hydrolase SARM1 (Homo sapiens) (UniProt Q6SZW1)	0.0
O=[N+]([O-])c1ccc(/C=C/c2ccncc2)cc1	NAD(+) hydrolase SARM1 (Homo sapiens) (UniProt Q6SZW1)	0.0
Nc1ccc(Br)cc1Br	NAD(+) hydrolase SARM1 (Homo sapiens) (UniProt Q6SZW1)	0.0
O=C1C(=Nc2cccc(Cl)c2)CC(c2ccc(Cl)cc2)N1c1cccc(Cl)c1 (centres undefined)	NAD(+) hydrolase SARM1 (Homo sapiens) (UniProt Q6SZW1)	0.0
O=C(Oc1ccc[nH]c1=O)c1cccc(Cl)c1	NAD(+) hydrolase SARM1 (Homo sapiens) (UniProt Q6SZW1)	0.0
Cc1cc(O)c(-c2cc(O)c(C)cc2O)cc1O	NAD(+) hydrolase SARM1 (Homo sapiens) (UniProt Q6SZW1)	1.0
COc1cc(/C=N/Nc2nc3c([nH]2)c(=O)n(C)c(=O)n3C)ccc1O	NAD(+) hydrolase SARM1 (Homo sapiens) (UniProt Q6SZW1)	0.0
O=C(O)c1ccc(NCc2nc3ccccc3[nH]2)cc1	NAD(+) hydrolase SARM1 (Homo sapiens) (UniProt Q6SZW1)	0.0
S=C1N(c2ccccc2)CN(C2CCCCC2)CN1c1ccccc1	NAD(+) hydrolase SARM1 (Homo sapiens) (UniProt Q6SZW1)	0.0
Cc1[nH]c(=S)[nH]c(=O)c1CCC1OCCO1	NAD(+) hydrolase SARM1 (Homo sapiens) (UniProt Q6SZW1)	0.0
Cc1nn(-c2ccccc2)c2c1C(c1ccc([N+](=O)[O-])cc1)C(C#N)=C(N)O2 (centres undefined)	NAD(+) hydrolase SARM1 (Homo sapiens) (UniProt Q6SZW1)	0.0
COC(=O)Nc1csc2c1NC(=O)CCCC2	NAD(+) hydrolase SARM1 (Homo sapiens) (UniProt Q6SZW1)	0.0
O=[N+]([O-])c1cccc(/C=C/c2ccccn2)c1	NAD(+) hydrolase SARM1 (Homo sapiens) (UniProt Q6SZW1)	0.0
COc1ccc(N=Cc2c(O)ccc3c2oc2cc(Cl)c(O)c(Cl)c23)cc1	NAD(+) hydrolase SARM1 (Homo sapiens) (UniProt Q6SZW1)	0.0
CN(C)C(=S)/N=c1\ssc(=S)n1Cc1ccco1	NAD(+) hydrolase SARM1 (Homo sapiens) (UniProt Q6SZW1)	0.0
O=C1CCC(NC(=O)c2ccccc2)C(=O)N1 (centres undefined)	NAD(+) hydrolase SARM1 (Homo sapiens) (UniProt Q6SZW1)	0.0
Cc1nnc(Cc2ccccc2)c2n[nH]c(C)c12	NAD(+) hydrolase SARM1 (Homo sapiens) (UniProt Q6SZW1)	0.0
CC1(CN2CCCC2)CCC(NC(=O)C(c2ccccc2)c2ccccc2)C(C)(C)O1 (centres undefined)	NAD(+) hydrolase SARM1 (Homo sapiens) (UniProt Q6SZW1)	0.0
COc1ccc(C2=NC(=O)NC2c2ccc(OC)cc2)cc1 (centres undefined)	NAD(+) hydrolase SARM1 (Homo sapiens) (UniProt Q6SZW1)	0.0
Nc1nc(N)nc(C2C=CCCC2)n1 (centres undefined)	NAD(+) hydrolase SARM1 (Homo sapiens) (UniProt Q6SZW1)	0.0
Cc1ccc(NC(=S)NC(=O)c2ccccc2)cc1NC(=S)NC(=O)c1ccccc1	NAD(+) hydrolase SARM1 (Homo sapiens) (UniProt Q6SZW1)	0.0
